# Lookup of reported residual activity keyed by entry
Test target: Misshapen-like kinase 1 (Homo sapiens)
Measurement conditions: at 1 µM

{"Sample smiles": "Nc1n[nH]c2nnc(-c3c(-c4ccccc4)nn4ccccc34)cc12", "Test target": "Misshapen-like kinase 1 (Homo sapiens)", "residual activity, %": 89}
{"Sample smiles": "Cc1cc2ncc(-c3ccccc3)nc2cc1C", "Test target": "Misshapen-like kinase 1 (Homo sapiens)", "residual activity, %": 94}
{"Sample smiles": "O=c1c2ccccc2[nH]c(=S)n1CCN1CCC(=C(c2ccc(F)cc2)c2ccc(F)cc2)CC1", "Test target": "Misshapen-like kinase 1 (Homo sapiens)", "residual activity, %": 88}
{"Sample smiles": "Oc1ccc(-c2nc(-c3ccc(F)cc3)c(-c3ccncc3)[nH]2)cc1", "Test target": "Misshapen-like kinase 1 (Homo sapiens)", "residual activity, %": 91}
{"Sample smiles": "Oc1c2ccccc2c2c3c(cccc13)N=N2", "Test target": "Misshapen-like kinase 1 (Homo sapiens)", "residual activity, %": 86}
{"Sample smiles": "COc1cc2ncnc(Nc3ccc(O)c(Br)c3)c2cc1OC", "Test target": "Misshapen-like kinase 1 (Homo sapiens)", "residual activity, %": 83}
{"Sample smiles": "c1ccc(-c2n[nH]c3c2oc2ccccc23)cc1", "Test target": "Misshapen-like kinase 1 (Homo sapiens)", "residual activity, %": 73}
{"Sample smiles": "CC(=O)c1ccc(N2CCOCC2)cc1O", "Test target": "Misshapen-like kinase 1 (Homo sapiens)", "residual activity, %": 108}
{"Sample smiles": "COc1ccc(OC)c2c(=S)c3ccccc3[nH]c12", "Test target": "Misshapen-like kinase 1 (Homo sapiens)", "residual activity, %": 108}
{"Sample smiles": "CC[n+]1c(/C=C/N(C)c2ccccc2)n(-c2ccccc2)c2ccc(-c3nc4ccccc4s3)cc21", "Test target": "Misshapen-like kinase 1 (Homo sapiens)", "residual activity, %": 102}
{"Sample smiles": "O=C(Nc1cccc(Nc2nccc(Nc3cccc(C(F)(F)F)c3)n2)c1)C1CC1", "Test target": "Misshapen-like kinase 1 (Homo sapiens)", "residual activity, %": 87}
{"Sample smiles": "Cc1cccc(-c2[nH]c(C(C)(C)C)nc2-c2ccc3c(c2)OCO3)n1", "Test target": "Misshapen-like kinase 1 (Homo sapiens)", "residual activity, %": 101}
{"Sample smiles": "COc1cc2ncnc(Nc3ccc(Oc4ccccc4)cc3)c2cc1OC", "Test target": "Misshapen-like kinase 1 (Homo sapiens)", "residual activity, %": 99}
